Provenance of the data: the NIST ThermoML archive (doi:10.1021/je050223a)

The reader will find reported mass density values listed item by item below.
EXPERIMENTAL_PARAMETERS: 308.15 K; 101.33 kPa; Liquid
Numbers after ± are expanded uncertainties.
MEASUREMENT_TYPE: mass density

> print(dat)
                                   compound        assay.result
1  C=C(C)C(=O)OCCO [2-hydroxyethyl 2-methyl-2-propenoate]  1057.7 ± 2.4 kg/m3
2  C=C(C)C(=O)OCc1ccccc1 [benzyl methacrylate]  1025.8 ± 2.4 kg/m3
3  C=C(C)C(=O)O [2-methyl-2-propenoic acid]   999.4 ± 2.1 kg/m3
4  CCOCCC(=O)OCC [ethyl β-ethoxypropionate]     933.4 ± 2 kg/m3

###

EXPERIMENTAL_PARAMETERS: 308.15 K; 101.33 kPa; Liquid
± gives the expanded uncertainty stated by the source.
viscosity values by entry
MEASUREMENT_TYPE: viscosity

> print(dat)
                                   molecule  measurement.type         assay.result
1  CCOCCC(=O)OCC [ethyl β-ethoxypropionate]         viscosity  0.996 ± 0.023 mPa·s
2  C=C(C)C(=O)OCc1ccccc1 [benzyl methacrylate]         viscosity  1.885 ± 0.047 mPa·s
3  C=C(C)C(=O)OCCO [2-hydroxyethyl 2-methyl-2-propenoate]         viscosity    4.194 ± 0.1 mPa·s
4                              C=C(C)C(=O)O         viscosity  1.078 ± 0.025 mPa·s

###

EXPERIMENTAL_PARAMETERS: 298.15 K; 101.33 kPa; Liquid
This listing pairs compounds with measured viscosity.
MEASUREMENT_TYPE: viscosity (mPa·s)

> print(dat)
                                   compound  measurement.type  assay.result
1  C=C(C)C(=O)OCCO [2-hydroxyethyl 2-methyl-2-propenoate]         viscosity         5.784
2                              C=C(C)C(=O)O         viscosity         1.267
3  C=C(C)C(=O)OCc1ccccc1 [benzyl methacrylate]         viscosity         2.302
4  CCOCCC(=O)OCC [ethyl β-ethoxypropionate]         viscosity         1.176

###

EXPERIMENTAL_PARAMETERS: 298.15 K; 101.33 kPa; Liquid
Reported mass density values for the following compounds.
MEASUREMENT_TYPE: mass density (kg/m3)

> print(dat)
                                   compound  unit.text  assay.result
1  C=C(C)C(=O)OCCO [2-hydroxyethyl 2-methyl-2-propenoate]      kg/m3        1067.1
2                              C=C(C)C(=O)O      kg/m3        1009.5
3  C=C(C)C(=O)OCc1ccccc1 [benzyl methacrylate]      kg/m3        1034.7
4  CCOCCC(=O)OCC [ethyl β-ethoxypropionate]      kg/m3         943.2
